Entry source: paper PMC5540273

- Tested on: RIOK3;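 further: KINOMEscan kinase panel screen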
- stated-conditions: concentration: 1 μM, replicates: in singlicate; n = 1
quantity-name: %Inh (%)
Reply numerically in %, unit not repeated.

Give the measured %Inh for COc1ccc(Nc2nccc(NCCNC(=O)Nc3cc(C)ccc3C)n2)cc1 [GSK1379899]
24

Give the measured %Inh for NS(=O)(=O)c1cccc(N/C=C2\C(=O)Nc3ccc(S(=O)(=O)Cc4c(Cl)cccc4Cl)cc32)c1 [GSK398099]
19

Give the measured %Inh for `CNC(=O)c1ccc(C)c(-n2c(C)cc(OCc3ccc(F)cc3F)c(Br)c2=O)c1`
0

Give the measured %Inh for CS(=O)(=O)Cc1ccc(Nc2nccc(-c3c(-c4cccc(NC(=O)C5CCCCC5)c4)nn4ncccc34)n2)cc1 [GSK350559]
36

Give the measured %Inh for O=C(Nc1n[nH]c2cc(-c3ccsc3)ccc12)C1CC1 [SB-732932]
0

Give the measured %Inh for COC(=O)c1cccc(NC(=O)NC2CCN(c3ccnc(Nc4ccc(OC)cc4)n3)C2)c1 (centres unmarked) [GSK1379746]
0

Give the measured %Inh for Nc1nccc(-c2c(-c3ccc(F)cc3)ncn2C2CCN(Cc3ccccc3)CC2)n1 [SB-219980]
0

Give the measured %Inh for c1ccc(-c2ccnc3[nH]ccc23)cc1 [SB-693578]
0
